test: Cytotoxicity against human HCT116 cells assessed as decrease in cell proliferation after 72 hrs by MTT assay; type: functional, cell-based; settings: HCT-116, 72 h
value-kind: IC50

| structure-smiles-string | recorded-result |
| --- | --- |
| CCOC(=O)[C@]1(C)CCC[C@@]2(C)[C@@H]3CC[C@@]4(C)C[C@]3(CC[C@@H]21)[C@H](CN=[N+]=[N-])[C@H]4O | 14.8 µM |

Dear colleague, I am looking for the recorded IC50 of the following compound: CC(=O)O[C@@H]1O[C@H](n2cc(COC(=O)[C@]3(C)CCC[C@@]4(C)[C@H]5CC[C@@]6(C)C[C@]5(CC[C@@H]43)CC6=O)nn2)[C@@H](OC(C)=O)[C@@H](OC(C)=O)[C@H]1OC(C)=O
19.3 µM

Also, C[C@@]12CC[C@@H]3[C@@](CC[C@H]4[C@@]3(C)CCC[C@@]4(C)C(=O)O)(CC1=O)C2 please.
> 150 µM

====

assay: Cytotoxicity against human HCT116 cells assessed as decrease in cell proliferation after 72 hrs by MTT assay; format: functional, cell-based; settings: HCT-116, 72 h
In this section we review reported pIC50 values for a set of compounds.
Lab note — pIC50 values are minus log10 of concentrations in M.

| structure-smiles-string | pIC50 |
| --- | --- |
| CCOC(=O)[C@]1(C)CCC[C@@]2(C)[C@@H]3CC[C@@]4(C)C[C@]3(CC[C@@H]21)[C@H](Cn1cc(-c2ccccc2)nn1)[C@H]4O | 5.07 |
| CCOC(=O)[C@]1(C)CCC[C@@]2(C)[C@@H]3CC[C@@]4(C)C[C@]3(CC[C@@H]21)[C@H](Cn1cc(COc2ccccc2C=O)nn1)[C@H]4O | 5.52 |

Moving on to the next compound.
Dear colleague, I am looking for the recorded pIC50 of the following compound: CCOC(=O)[C@]1(C)CCC[C@@]2(C)[C@@H]3CC[C@@]4(C)C[C@]3(CC[C@@H]21)[C@H](Cn1cc(COc2ccc(C(C)=O)cc2)nn1)[C@H]4O
5.09

====

experiment: Cytotoxicity against human HCT116 cells assessed as decrease in cell proliferation after 72 hrs by MTT assay; format: functional, cell-based; conditions: HCT-116, 72 h
pIC50: −log10 of the molar value.
Record condition met whenever pIC50 is at 5 or higher; record condition not met when lower.

| structure-smiles-string | group |
| --- | --- |
| CCOC(=O)[C@]1(C)CCC[C@@]2(C)[C@@H]3CC[C@@]4(C)C[C@]3(CC[C@@H]21)C[C@@H]4n1cc(COc2ccccc2C=O)nn1 | condition met |
| CCOC(=O)[C@]1(C)CCC[C@@]2(C)[C@@H]3CC[C@@]4(C)C[C@]3(CC[C@@H]21)C[C@H]4OS(=O)(=O)c1ccc(C)cc1 | condition not met |
| CCOC(=O)[C@]1(C)CCC[C@@]2(C)[C@@H]3CC[C@@]4(C)C[C@]3(CC[C@@H]21)C[C@@H]4N=[N+]=[N-] | condition not met |
| CCOC(=O)[C@]1(C)CCC[C@@]2(C)[C@@H]3CC[C@@]4(C)C[C@]3(CC[C@@H]21)[C@H](Cn1cc(COc2cccc(C=O)c2)nn1)[C@H]4O | condition met |
| CCOC(=O)[C@]1(C)CCC[C@@]2(C)[C@@H]3CC[C@@]4(C)C[C@]3(CC[C@@H]21)C[C@H]4n1cc(COC(=O)[C@]2(C)CCC[C@@]3(C)[C@@H]4CC[C@@]5(C)C[C@]4(CC[C@@H]32)CC5=O)nn1 | condition not met |

Reported pIC50 at or above 5? CCOC(=O)[C@]1(C)CCC[C@@]2(C)[C@@H]3CC[C@@]4(C)C[C@]3(CC[C@@H]21)[C@H](Cn1cc(CO)nn1)[C@H]4O
condition not met

Also, C#CCOC(=O)[C@]1(C)CCC[C@@]2(C)[C@@H]3CC[C@@]4(C)C[C@]3(CC[C@@H]21)CC4=O please.
condition not met

Also, CCOC(=O)[C@]1(C)CCC[C@@]2(C)[C@@H]3CC[C@@]4(C)C[C@]3(CC[C@@H]21)C[C@@H]4n1cc(-c2ccccc2)nn1 please.
condition not met

Also, CCOC(=O)[C@]1(C)CCC[C@@]2(C)[C@@H]3CC[C@@]4(C)C[C@]3(CC[C@@H]21)C[C@@H]4n1cc(COc2cccc(C=O)c2)nn1 please.
condition met

====

assay: Cytotoxicity against human HCT116 cells assessed as decrease in cell proliferation after 72 hrs by MTT assay; assay type: functional, cell-based; settings: HCT-116, 72 h
value-kind: pIC50
Lab note — pIC50 values are minus log10 of concentrations in M.

Example entries and their recorded answers appear below.
| structure-smiles-string | value-kind | recorded-result |
| --- | --- | --- |
| CCOC(=O)[C@]1(C)CCC[C@@]2(C)[C@@H]3CC[C@@]4(C)C[C@]3(CC[C@@H]21)[C@H](Cn1cc(COc2ccc(C=O)cc2)nn1)[C@H]4O | pIC50 | 5.18 |
| CCOC(=O)[C@]1(C)CCC[C@@]2(C)[C@@H]3CC[C@@]4(C)C[C@]3(CC[C@@H]21)[C@H](Cn1cc(COc2ccc(C=O)cc2OC)nn1)[C@H]4O | pIC50 | 5.39 |

Dear colleague, I am looking for the recorded pIC50 of the following compound: CCOC(=O)[C@]1(C)CCC[C@@]2(C)[C@@H]3CC[C@@]4(C)C[C@]3(CC[C@@H]21)C[C@@H]4n1cc(COc2ccc(C=O)cc2)nn1
5.09

====

assay: Cytotoxicity against human HCT116 cells assessed as decrease in cell proliferation after 72 hrs by MTT assay; type: functional, cell-based; details: HCT-116, 72 h
value-kind: IC50 (µM)
Number in µM, nothing else.

Example entries and their recorded answers appear below.
| structure-smiles-string | value-kind | recorded-result |
| --- | --- | --- |
| CCOC(=O)[C@]1(C)CCC[C@@]2(C)[C@@H]3CC[C@@]4(C)C[C@]3(CC[C@@H]21)C[C@@H]4n1cc(COc2ccc(C(C)=O)cc2)nn1 | IC50 | 9.62 |
| CCOC(=O)[C@]1(C)CCC[C@@]2(C)[C@@H]3CC[C@@]4(C)C[C@]3(CC[C@@H]21)C[C@@H]4n1cc(COc2ccc(C=O)cc2OC)nn1 | IC50 | 7.18 |

Moving on to the next compound.
Dear colleague, I am looking for the recorded IC50 of the following compound: CCOC(=O)[C@]1(C)CCC[C@@]2(C)[C@@H]3CC[C@@]4(C)C[C@]3(CC[C@@H]21)C[C@@H]4n1cc(COc2ccc(C(=O)O)cc2)nn1
11.8

The measured values listed here are drawn from ChEMBL document CHEMBL3864158.
